Origin of values: patent US5928185A

- assay-summary: Administration of pentasaccharide sodium salt to minipigs by iontophoresis with periodic current reversal; plasma levels (Example 4)
- Type: in vivo, minipig
- condition-notes: test 4a: passive, 0 mA/cm^2
endpoint: Initial plasma level (anti-Xa U/mL)
Please give a number only; it is taken to be in anti-Xa U/mL.

Tell me the measured Initial plasma level of O=C(O)C1OC(OC2C(COS(=O)(=O)O)OC(OC3C(C(=O)O)OC(OC4C(COS(=O)(=O)O)OC(O)C(NS(=O)(=O)O)C4O)C(OS(=O)(=O)O)C3O)C(NS(=O)(=O)O)C2OS(=O)(=O)O)C(O)C(O)C1OC1OC(COS(=O)(=O)O)C(O)C(O)C1NS(=O)(=O)O (stereo not shown) [pentasaccharide] , please.
0

====

- assay-summary: Administration of pentasaccharide sodium salt to minipigs by iontophoresis with periodic current reversal; plasma levels (Example 4)
- Type: in vivo, minipig
- condition-notes: test 4b: iontophoresis 0.125 mA/cm^2, 8 hours, reversal every 30 minutes
endpoint: Initial plasma level (anti-Xa U/mL)
Please give a number only; it is taken to be in anti-Xa U/mL.

Tell me the measured Initial plasma level of O=C(O)C1OC(OC2C(COS(=O)(=O)O)OC(OC3C(C(=O)O)OC(OC4C(COS(=O)(=O)O)OC(O)C(NS(=O)(=O)O)C4O)C(OS(=O)(=O)O)C3O)C(NS(=O)(=O)O)C2OS(=O)(=O)O)C(O)C(O)C1OC1OC(COS(=O)(=O)O)C(O)C(O)C1NS(=O)(=O)O (stereo not shown) [pentasaccharide] , please.
0
